- assay protocol: Area under the curve determination of plasma levels in rats (rrAUC)
- Format: in vivo
- experimental conditions: rat, oral 10 mg/kg, plasma 0.5-6 h; read-out: RR AUC (nM · h), rapid rat AUC (rrAUC)
measured parameter: AUC (µM·h)

compound: COc1ccc2c(c1)C(=O)N(C[C@@]1(C#Cc3ccc(-c4noc(C)n4)cc3)NC(=O)NC1=O)C2 [Compound 2253]
measured parameter: AUC
unit string: µM·h
measured number: 4.14
//
compound: COc1ccc2c(c1F)C(=O)N(C[C@@]1(C#Cc3cccnc3)NC(=O)NC1=O)C2 [Compound 2267]
measured parameter: AUC
unit string: µM·h
measured number: 2.44
//
compound: COc1ccc2c(c1)C(=O)N(C[C@@]1(C#Cc3ccc4c(c3)CCCC43NC(=O)NC3=O)NC(=O)NC1=O)C2 (some centres unmarked) [Compound 2312]
measured parameter: AUC
unit string: µM·h
measured number: 0.014
//
compound: COc1ccc2c(c1)C(=O)N(C[C@@]1(C#Cc3cccnc3-c3cnn(C)c3)NC(=O)NC1=O)C2 [Compound 2263]
measured parameter: AUC
unit string: µM·h
measured number: 0.187
//
compound: CON=C(c1ccc(C#C[C@]2(CN3Cc4ccc(OC)cc4C3=O)NC(=O)NC2=O)cc1)N1CCOCC1 [Compound 932]
measured parameter: AUC
unit string: µM·h
measured number: 3.17
//
compound: COc1ccc2c(c1)C(=O)N(C[C@@]1(C#Cc3ccc(-c4c(C)nn(C)c4C)nc3)NC(=O)NC1=O)C2 [Compound 2268]
measured parameter: AUC
unit string: µM·h
measured number: 1.07
//
compound: COc1ccc2c(c1)C(=O)N(C[C@@]1(C#Cc3ccc([C@H]4CCC(=O)N4)cc3)NC(=O)NC1=O)C2 [Compound 2259]
measured parameter: AUC
unit string: µM·h
measured number: 0.126
//
compound: COc1ccc2c(c1)C(=O)N(C[C@@]1(C#Cc3ccc(C(O)(O)C(F)(F)F)cc3)NC(=O)NC1=O)C2 [Compound 2252]
measured parameter: AUC
unit string: µM·h
measured number: 0.768
//
compound: COc1ccc2c(c1F)C(=O)N(C[C@@]1(C#Cc3cccnc3C)NC(=O)NC1=O)C2 [Compound 2273]
measured parameter: AUC
unit string: µM·h
measured number: 2.89
//
compound: CCN1CCC(C(=O)OC)(c2ccc(C#C[C@]3(CN4Cc5ccc(OC)cc5C4=O)NC(=O)NC3=O)cc2)CC1 [Compound 2276]
measured parameter: AUC
unit string: µM·h
measured number: 2.32
//
compound: COc1ccc2c(c1)C(=O)N(C[C@@]1(C#Cc3ccc4c(c3)CC[C@@]43NC(=O)NC3=O)NC(=O)NC1=O)C2 [Compound 2314]
measured parameter: AUC
unit string: µM·h
measured number: 0.218
//
compound: COc1ccc2c(c1)C(=O)N(C[C@@]1(C#Cc3ccc(C(=NO)N4CCOCC4)cc3)NC(=O)NC1=O)C2 [Compound 941]
measured parameter: AUC
unit string: µM·h
measured number: 0.058
//
compound: COc1ccc2c(c1)C(=O)N(C[C@@]1(C#Cc3ccc(-c4ccccc4O)nc3)NC(=O)NC1=O)C2 [Compound 2277]
measured parameter: AUC
unit string: µM·h
measured number: 0.271
//
compound: CCN1CCN(Cc2ccc(C#C[C@]3(CN4Cc5ccc(OC)cc5C4=O)NC(=O)NC3=O)cc2)CC1 [Compound 933]
measured parameter: AUC
unit string: µM·h
measured number: 0.024
